experiment: Selectivity index, ratio of IC50 for HEK293 cells to IC50 for Trypanosoma brucei brucei Lister 427; assay type: toxicity; conditions: human, read-out: Ratio IC50
Reported selectivity ratio values for the following compounds.

compound-string | comparator | selectivity ratio
Cc1cc(NC(=O)c2ccc(Cl)cc2)ccc1NS(C)(=O)=O | < | 1
O=C(Nc1ccc(NS(=O)(=O)C(F)(F)F)c(Cl)c1)c1cccc(C(F)(F)F)c1 | < | 4
O=C(Nc1ccc(NS(=O)(=O)C(F)(F)F)c(F)c1)c1cccc(C(F)(F)F)c1 | = | 3
Cc1cc(NC(=O)c2cccc(C(F)(F)F)c2)ccc1NS(=O)(=O)C(F)(F)F | = | 6
CCS(=O)(=O)Nc1ccc(NC(=O)c2ccc(Cl)c([N+](=O)[O-])c2)cc1C | = | 7
COc1cc(NC(=O)c2ccc(Cl)c([N+](=O)[O-])c2)ccc1NS(C)(=O)=O | < | 3

Origin of the recorded values: ChEMBL document CHEMBL4480436
